The following molecules have recorded pIC50 on TRKA (Homo sapiens, UniProt P04629).
Sequence (P04629 440-796 limits assumed): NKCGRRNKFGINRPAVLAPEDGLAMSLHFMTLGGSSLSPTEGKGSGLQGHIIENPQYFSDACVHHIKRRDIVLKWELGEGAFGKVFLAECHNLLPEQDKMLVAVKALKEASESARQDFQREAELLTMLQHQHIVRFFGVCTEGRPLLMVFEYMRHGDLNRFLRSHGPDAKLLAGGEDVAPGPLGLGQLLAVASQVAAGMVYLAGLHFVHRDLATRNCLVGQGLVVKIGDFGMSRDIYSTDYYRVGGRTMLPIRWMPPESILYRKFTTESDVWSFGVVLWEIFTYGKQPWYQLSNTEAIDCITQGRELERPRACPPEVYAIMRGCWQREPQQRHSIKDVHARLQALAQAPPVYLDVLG
API: returns pIC50 as number; meaning -log10 of concentration in mol/L.

Prompt line: Give the measured pIC50 of "O=C(Nc1ccc2[nH]nc(/C=C/c3ccccn3)c2c1)c1cc(F)cc(F)c1" .
Response line: 6.71

Prompt line: Check "Fc1ccc(F)c(Cc2ccc3[nH]nc(C#Cc4ccccn4)c3c2)c1" too.
Response line: 7.36

Prompt line: Check Clc1cccc(Cc2ccc3[nH]nc(/C=C/c4ccccn4)c3c2)c1 [DYX-134X] too.
Response line: 7.15

Prompt line: Check "Fc1cc(F)cc(OCc2ccc3[nH]nc(/C=C/c4ccccn4)c3c2)c1" too.
Response line: 8.15

Prompt line: Check "Fc1cc(F)cc(Cc2ccc3[nH]nc(/C=C/c4ccncc4)c3c2)c1" too.
Response line: 8.48

Prompt line: Check "Fc1ccccc1Cc1ccc2[nH]nc(/C=C/c3ccccn3)c2c1" too.
Response line: 7.84

Prompt line: Check "Fc1cccc(Cc2ccc3[nH]nc(/C=C/c4ccccn4)c3c2)c1" too.
Response line: 8.03

Prompt line: Check "Fc1cc(F)cc(Cc2ccc3[nH]nc(/C=C/c4ccccc4F)c3c2)c1" too.
Response line: 8.04

Prompt line: Check "Fc1cc(F)cc(Oc2ccc3[nH]nc(C#Cc4ccccn4)c3c2)c1" too.
Response line: 7.29

Prompt line: Check Cc1cccc(Cc2ccc3[nH]nc(C#Cc4ccccn4)c3c2)c1 [DYX-137Q] too.
Response line: 6.67

Prompt line: Check "Fc1cc(F)cc(Cc2ccc3[nH]nc(/C=C/c4cnccn4)c3c2)c1" too.
Response line: 8.80

Prompt line: Check N#Cc1cccc(Cc2ccc3[nH]nc(/C=C/c4ccccn4)c3c2)c1 [DYX-136X] too.
Response line: 8.32

Prompt line: Check COc1cccc(Cc2ccc3[nH]nc(/C=C/c4ccccn4)c3c2)c1 [DYX-135X] too.
Response line: 7.31
